- assay-summary: amyloid nucleation score (Sup35N fusion, yeast selection) (log enrichment); library NNK2; higher = more nucleation; inactive = no reads after selection;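 note: zero at mode of non-aggregating sequences after 7 days selection at 30°C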
assay-endpoint: amyloid nucleation score
Give only the figure.

// known answers, use as guide
CKLEQYRASWINLVTHLDEA | 0.073
NIRQVIKGVSCLHIMWEKWR | -0.304
YSYSSFLKVSGLSSDRLGYI | -0.133
ITCLWRAWNAVLRRGHYKTS | 0.615
HKLCGYIYIRVIRSWKWYKQ | -0.306

Problem: For SAPECNLAARVFYLLSPMGM , write its amyloid nucleation score.
Solution: 0.13

Problem: For CSKDMSQKLVYRLWSIIVMA , write its amyloid nucleation score.
Solution: -0.542
